- System: T1, hIGF2R-ECD (Homo sapiens, UniProt P11717)
- T1 construct: immobilized recombinant human extracellular domain of IGF2R (hIGF2R-ECD) was used
- Assay name: Competition assay with 13F11-A647 as reporter VHH on immobilized hIGF2R-ECD
- Assay type: binding
- Experimental conditions: 10 nM 13F11-A647, 250 nM unconjugated competitor VHH
Reported metric: competition with reporter VHH 13F11-A647

>>> endpoint_value("13C11: VHH single domain antibody targeting IGF2R, SEQ ID NO: 297 (protein) VHH: EVQLVESGGGLVQAGGSLRLSCAASGLTFSSYTMAWYRQAPGKEREVVAAISSGDSIYHEGSVQGRFIISRDNAKNTVYLQMNSLKAEDTAVYYCRANGPGTYWGQGTQVTVSS")
"competed with 13F11"
>>> endpoint_value("13A8: VHH single domain antibody targeting IGF2R, SEQ ID NO: 257 (protein) VHH: EVQLVESGGGLVPAGGSLRLSCAASGRTFSNYAMGWFRQAPGKERKFVATISWSGGVTYYADSVKGRFTISRDNAKNTVYLLMNSLKPEDTAVYYCAAKRDSSSYDHRRYDYWGQGTQVTVSS")
"competed with 13F11"
